PROTOCOL_NOTES: Half life in human hepatocytes at 1 uM up to 120 mins by LC/MS analysis
Assay type: ADME, cell-based, Hepatocyte
half-life at 1 µM overview
Express it in min; write the number only.

Worked cases, half-life at 1 µM given:
Cc1ccc2c(Cn3cnc(F)c3)ccc(OC(=O)OC(C)(C)C)c2n1 1.6
O=[N+]([O-])c1ccc2c(c1)ncn2Cc1ccc(O)c2ncccc12 27
Oc1ccc(Cn2cnc(F)c2)c2cccnc12 23
O=C(Oc1ccc(Cn2ccnc2)c2cccnc12)c1ccccc1 1.4
Oc1ccc(Cn2ccnc2)c2cccnc12 21

Here is another molecule to look at.
Exercise: // half-life at 1 µM lookup, key: Oc1ccc(Cn2cnc3ccccc32)c2cccnc12
Key: 31

* * *

SYSTEM_UNDER_TEST: Bromodomain-containing protein 4 (Homo sapiens, UniProt O60885)
Doc: threshold 4 °C (exclusive). Items with ΔTm beneath it return criterion met; others return criterion not met.

Known results for compounds:
SMILES_CODE	ANSWER_LABEL
O=C1CN(Cc2ccc(O)c3ncccc23)Cc2ncccc2N1	criterion not met
Oc1ccc(Cn2cccn2)c2cccnc12	criterion not met

Exercise: Check if ΔTm falls below 4 °C for CC(C)(C)OC(=O)Oc1ccc(Cn2ccnc2)c2cccnc12 .
Key: criterion not met

Exercise: Here is the next compound: Oc1ccc(Cn2cncn2)c2cccnc12
Key: criterion met

* * *

SYSTEM_UNDER_TEST: Bromodomain-containing protein 4 (Homo sapiens, UniProt O60885)
PROTOCOL_NOTES: Inhibition of BRD4 BD1 (unknown origin) at 10 uM using biotin labelled NeC: SGRG-K(Ac)-GG-K(Ac)-GLG-K(Ac)-GGA-K(Ac)-RHRKVGG-K as substrate preincubated for 15 mins followed by substrate addition measured after 30 mins by alpha screen assay relative to control
inhibition overview
Express it in %; write the number only.

O=C(N/N=C/c1ccc(O)c2ncccc12)c1cccc(Br)c1 73
CN(C)c1ccc2cccc(O)c2n1 -0
O=c1oc2ccc(Cl)cc2n1Cc1ccc(O)c2ncccc12 16
COc1ccc(C)cc1/N=N/c1ccc(O)c2nc(C=O)ccc12 20
O=C1c2ccccc2C(=O)N1CCCOc1ccc(Cn2ccnc2)c2cccnc12 21

Exercise: // inhibition lookup, key: CCCOCc1ccc(O)c2ncccc12
Key: 96

Exercise: Here is the next molecule: Oc1ccc(CNc2cccc(C(F)(F)F)c2)c2cccnc12
Key: 84

Exercise: Here is the next molecule: Oc1ccc(CNc2ccc(Cl)cn2)c2cccnc12
Key: 12

Exercise: Here is the next molecule: O=C1c2ccccc2C(=O)N1Cc1ccc(O)c2ncccc12
Key: 30

Exercise: Here is the next molecule: O=[N+]([O-])c1cccc(S(=O)(=O)Nc2ccc(O)c3ncccc23)c1
Key: -0

Exercise: Here is the next molecule: Oc1ccc(CSc2ccccc2)c2cccnc12
Key: 86

Exercise: Here is the next molecule: COc1ccc(C)cc1/N=N/c1ccc(O)c2nc(/C=N/O)ccc12
Key: 24

Exercise: Here is the next molecule: Cc1cc(C)n(-c2ccc3c(Cl)cc(Cl)c(O)c3n2)n1
Key: -0

Exercise: Here is the next molecule: O=C(CCc1ccccc1)N/N=C/c1ccc(O)c2ncccc12
Key: 86

Exercise: Here is the next molecule: Nc1ccc(-c2nc3ccc(-c4nc5ccc(N)cc5[nH]4)cc3[nH]2)cc1
Key: -0

Exercise: Here is the next molecule: O=S(=O)(O)c1ccc(/N=N/c2ccc(O)c3ncccc23)cc1
Key: -0
